# SYSTEM NAME: KRAS G12V (Homo sapiens (Human), UniProt P01116+P62937, G12V)
# Sequence (P01116-2 other isoform, or with tags, fused parts or gaps G12V, one chain of several): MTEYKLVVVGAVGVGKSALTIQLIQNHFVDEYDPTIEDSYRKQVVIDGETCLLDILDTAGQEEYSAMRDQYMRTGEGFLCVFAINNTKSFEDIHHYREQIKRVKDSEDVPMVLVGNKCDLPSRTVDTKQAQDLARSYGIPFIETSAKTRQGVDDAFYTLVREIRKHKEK
# ASSAY DETAILS: Ras-Raf (BRAF RBD) disruption / FRET / MOA assay, KRAS G12V
# Assay type: biochemical
# CONDITION DESCRIPTION: read-out: IC50* KRAS G12V FRET data
# Experimental: The purpose of this biochemical assay is to measure the ability of test compounds to facilitate ternary complex formation between a nucleotide-loaded Ras isoform and cyclophilin A; the resulting ternary complex disrupts binding to a BRAF^RBD construct, inhibiting Ras signaling through a RAF effector. Compound is present in plate wells as a 10-point 3-fold dilution series starting at a final concentration of 30 μM. […]
pIC50: −log10 of the molar value.
READOUT LABEL: pIC50

1. C=CC(=O)N1CCO[C@H]2CN(C(=O)N(C)[C@H](C(=O)N[C@H]3C[C@H]4CN(CCO4)c4ccc5c(c4)c(c(-c4cccnc4[C@H](C)OC)n5CC)CC(C)(C)COC(=O)[C@@H]4CCCN(N4)C3=O)C(C)C)C[C@H]21	5.00 to 6.00
2. CO[C@@H](C)c1ncccc1-c1c2c3cc(ccc3n1CC(F)(F)F)-c1nnc(o1)C[C@H](NC(=O)[C@H](C(C)C)N(C)C(=O)[C@H]1CCN(C(=O)C#CC(C)(C)N3CCC3)C1)C(=O)N1CCC[C@H](N1)C(=O)OCC(C)(C)C2	5.00 to 6.00
3. C=CC(=O)N1CCC(C(=O)N(C)[C@H](C(=O)N[C@H]2Cc3cc(O)cc(c3)-c3ccc4c(c3)c(c(-c3ccccc3CCOC)n4CC)CC(C)(C)c3coc(n3)[C@@H]3CCCN(N3)C2=O)C(C)C)C1 (single isomer, unassigned)	< 5.00
4. CCn1c(-c2cccnc2[C@H](C)OC)c2c3cc(ccc31)C1=CCCN(C1)C[C@H](NC(=O)[C@@H](COC1CN(C(=O)C#CC(C)(C)N(C)C)C1)C(C)C)C(=O)N1CCC[C@H](N1)C(=O)OCC(C)(C)C2 (atropisomer, axis not shown)	< 5.00

---

# SYSTEM NAME: KRAS G12S (Homo sapiens (Human), UniProt P01116+P62937, G12S)
# Sequence (P01116-2 other isoform, or with tags, fused parts or gaps G12S, one chain of several): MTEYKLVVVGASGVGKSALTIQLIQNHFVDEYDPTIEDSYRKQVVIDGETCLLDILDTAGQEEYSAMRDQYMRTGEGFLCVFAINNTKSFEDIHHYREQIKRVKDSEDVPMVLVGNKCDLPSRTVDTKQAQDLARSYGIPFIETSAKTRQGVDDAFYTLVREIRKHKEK
# ASSAY DETAILS: Ras-Raf (BRAF RBD) disruption / FRET / MOA assay, KRAS G12S
# Format: biochemical
# CONDITION DESCRIPTION: Ras-Raf disruption/FRET/MOA assay; class symbols; read-out: KRAS G12S FRET data IC50
pIC50: −log10 of the molar value.
READOUT LABEL: pIC50

1) CO[C@@H](C)c1ncccc1-c1c2c3cc(ccc3n1CC(F)(F)F)-c1cc(F)cc(c1)C[C@H](NC(=O)[C@@H](COC1CN(C(=O)C#CC(C)(C)N(C)C)C1)C(C)C)C(=O)N1CCC[C@H](N1)C(=O)OCC(C)(C)C2 (atropisomer, axis not shown)	5.00 to 6.00
2) C=CC(=O)N1CCN(C(=O)N(C)[C@H](C(=O)N[C@H]2Cc3nc(cs3)-c3ccc4c(c3)c(c(-c3cccnc3[C@H](C)OC)n4CC)CC(C)(C)COC(=O)[C@@H]3CCCN(N3)C2=O)C(C)C)CC1 (atropisomer, axis not shown) [Example A492]	7.00 to 8.00
3) C=CC(=O)N1CC[C@H](C(=O)Nc2ccccc2C(=O)N[C@H]2Cc3cc(O)cc(c3)-c3ccc4c(c3)c(c(-c3cnccc3COC)n4CC)CC(C)(C)COC(=O)[C@@H]3CCCN(N3)C2=O)C1	< 5.00
4) CCn1c(-c2cccnc2[C@H](C)OC)c2c3cc(ccc31)-c1cccc(c1)C[C@H](NC(=O)[C@@H](COC1CN(C(=O)C#C[C@@H]3OCCCN3C)C1)C(C)C)C(=O)N1CCC[C@H](N1)C(=O)OCC(C)(C)C2 (atropisomer, axis not shown)	< 5.00
5) CCn1c(-c2cccnc2[C@H](C)OC)c2c3cc(ccc31)-c1csc(n1)C[C@H](NC(=O)[C@H](C(C)C)N(C)C(=O)[C@H]1CCN(C(=O)C#CC(C)(C)N(C)C)C1)C(=O)N1CCC[C@H](N1)C(=O)OCC(C)(C)C2 (atropisomer, axis not shown)	5.00 to 6.00
6) CCn1c(-c2cccnc2[C@H](C)OC)c2c3cc(ccc31)-c1cccc(c1)C[C@H](NC(=O)[C@H](C(C)C)N(C)C(=O)[C@H]1CCN(C(=O)C#C[C@]3(C)CCCN3C)C1)C(=O)N1CCC[C@H](N1)C(=O)OCC(C)(C)C2	5.00 to 6.00
7) C=CC(=O)N1CC[C@H](C(=O)N(C)[C@H](C(=O)N[C@H]2Cc3nc(cs3)-c3ccc4c(c3)c(c(-c3cccnc3[C@H](C)OC)n4CC)CC(C)(C)C/C=C/[C@@H]3CCCN(N3)C2=O)C(C)C)C1 (atropisomer, axis not shown)	< 5.00
8) C=CC(=O)N1CC[C@H](C(=O)N(C)[C@H](C(=O)N[C@H]2Cc3cc(O)cc(c3)-c3ccc4c(c3)c(c(-c3cccnc3[C@@H](OC)C3CC3)n4CC)CC(C)(C)COC(=O)[C@@H]3CCCN(N3)C2=O)C(C)C)C1 (atropisomer, axis not shown) [Example A206]	6.00 to 7.00
9) CCn1c(-c2cccnc2[C@H](C)OC)c2c3cc(ccc31)-c1cccc(c1)C[C@H](NC(=O)[C@H](C(C)C)N(C)C(=O)[C@H]1CCN(C(=O)C#CCN3CCOCC3)C1)C(=O)N1CCC[C@H](N1)C(=O)OCC(C)(C)C2 (atropisomer, axis not shown)	< 5.00
10) C=CC(=O)N(C)C[C@H]1CCN1C(=O)N(C)[C@H](C(=O)N[C@H]1Cc2nc(cs2)-c2ccc3c(c2)c(c(-c2cccnc2[C@H](C)OC)n3CC)CC(C)(C)COC(=O)[C@@H]2CCCN(N2)C1=O)C(C)C (atropisomer, axis not shown)	6.00 to 7.00
11) C=CC(=O)N1CC[C@H](C(=O)N(C)[C@H](C(=O)N[C@H]2Cc3cccc(c3)-c3ccc4c(c3)c(c(-c3cnccc3COC)n4CC)CC(C)(C)COC(=O)[C@@H]3CCCN(N3)C2=O)C(C)C)C1 (atropisomer, axis not shown)	5.00 to 6.00
12) C=CC(=O)N1CC(O[C@H](C(=O)N[C@H]2Cc3cc(O)cc(c3)-c3ccc4c(c3)c(c(-c3cccnc3COC)n4CC)CC(C)(C)COC(=O)[C@@H]3CCCN(N3)C2=O)C(C)C)C1	< 5.00
13) CCn1c(-c2cccnc2[C@H](C)OC)c2c3cc(ccc31)-c1csc(n1)C[C@H](NC(=O)[C@H](C(C)C)N(C)C(=O)N1CCC3(CC1)CN(C(=O)/C=C/CN1CCOCC1)C3)C(=O)N1CCC[C@H](N1)C(=O)OCC(C)(C)C2 (atropisomer, axis not shown)	6.00 to 7.00
14) C=CC(=O)N1CC[C@H](C(=O)N(C)[C@H](C(=O)N[C@H]2Cc3nc(cs3)-c3ccc4c(c3)c(c(-c3cc(C5=CCN(C)CC5)cnc3[C@H](C)OC)n4CC)CC(C)(C)COC(=O)[C@@H]3CCCN(N3)C2=O)C(C)C)C1 (atropisomer, axis not shown) [Example A520]	5.00 to 6.00
15) CCn1c(-c2cncnc2)c2c3cc(ncc31)-c1cc(O)cc(c1)C[C@H](NC(=O)[C@H](C(C)C)N(C)C(=O)[C@H]1CCN(C(=O)C#CCN(C)C)C1)C(=O)N1CCC[C@H](N1)C(=O)OCC(C)(C)C2	5.00 to 6.00

---

# SYSTEM NAME: KRAS G12D (Homo sapiens (Human), UniProt P01116+P62937, G12D)
# Sequence (P01116-2 other isoform, or with tags, fused parts or gaps G12D): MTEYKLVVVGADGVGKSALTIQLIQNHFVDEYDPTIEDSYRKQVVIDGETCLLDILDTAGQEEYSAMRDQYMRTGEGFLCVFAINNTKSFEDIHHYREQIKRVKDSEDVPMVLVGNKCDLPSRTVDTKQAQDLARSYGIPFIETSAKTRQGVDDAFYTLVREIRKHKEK
# Sequence (P62937 whole entry): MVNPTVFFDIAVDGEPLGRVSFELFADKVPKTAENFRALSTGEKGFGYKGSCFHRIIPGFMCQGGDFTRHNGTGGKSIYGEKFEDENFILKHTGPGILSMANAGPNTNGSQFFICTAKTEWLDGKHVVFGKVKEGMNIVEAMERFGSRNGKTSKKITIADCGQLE
# ASSAY DETAILS: Ras-Raf (BRAF RBD) disruption / FRET / MOA assay, KRAS G12D
# Assay type: biochemical
# CONDITION DESCRIPTION: Ras-Raf disruption/FRET/MOA assay; class symbols; read-out: KRAS G12D FRET data IC50
pIC50: −log10 of the molar value.
The molecules listed here are annotated with their pIC50.
READOUT LABEL: pIC50

1. C=CC(=O)N1CC[C@H](C(=O)N(C)[C@H](C(=O)N[C@H]2CC3=NN=C(S3)c3ccc4c(c3)c(c(-c3cccnc3[C@H](C)OC)n4CC)CC(C)(C)COC(=O)[C@@H]3CCCN(N3)C2=O)C(C)C)C1 (atropisomer, axis not shown)	< 5.00
2. C=CC(=O)N1CC[C@@]2(CCN([C@H](C(=O)N[C@H]3Cc4cccc(c4)-c4ccc5c(c4)c(c(-c4cccnc4[C@H](C)OC)n5CC)CC(C)(C)COC(=O)[C@@H]4CCCN(N4)C3=O)C(C)C)C2=O)C1 (atropisomer, axis not shown)	< 5.00
3. C=CC(=O)N1CC[C@H](C(=O)N(C)[C@H](C(=O)N[C@H]2Cc3cc(F)cc(c3)-c3ccc4c(c3)c(c(-c3cccnc3[C@H](C)OC)n4CC)CC(C)(C)COC(=O)[C@@H]3CCCN(N3)C2=O)C(C)C)C1 (atropisomer, axis not shown)	5.00 to 6.00
4. CCn1c(-c2cnccc2[C@H](C)OC)c2c3cc(ccc31)-c1cccc(c1)C[C@H](NC(=O)[C@H](C1CCCC1)N(C)C(=O)[C@H]1CCN(C(=O)C#CCN(C)C)C1)C(=O)N1CCC[C@H](N1)C(=O)OCC(C)(C)C2	5.00 to 6.00
5. C=CC(=O)N1CCN(C(=O)N(C)[C@H](C(=O)N[C@H]2Cc3nc(cs3)-c3ccc4c(c3)c(c(-c3cccnc3[C@H](C)OC)n4CC)CC(C)(C)COC(=O)[C@@H]3CCCN(N3)C2=O)C(C)C)[C@H]2CC[C@H]21 (atropisomer, axis not shown)	6.00 to 7.00
6. C=CC(=O)N1CC[C@H](C(=O)N(C)[C@H](C(=O)N[C@H]2Cc3cc(O)cc(c3)-c3ccc4c(c3)c(c(-c3ccncc3CN(C)C)n4CC)CC(C)(C)COC(=O)[C@@H]3CCCN(N3)C2=O)C(C)C)C1	5.00 to 6.00
7. C=CC(=O)N1CC[C@@H]2[C@H]1CN2C(=O)N(C)[C@H](C(=O)N[C@H]1Cc2nc(cs2)-c2ccc3c(c2)c(c(-c2cccnc2[C@H](C)OC)n3CC)CC(C)(C)COC(=O)[C@@H]2CCCN(N2)C1=O)C(C)C (atropisomer, axis not shown)	5.00 to 6.00
8. CO[C@@H](COC1CN(C(=O)C#CC(C)(C)N(C)C)C1)C(=O)N[C@H]1Cc2coc(n2)-c2ccc3c(c2)c(c(-c2cccnc2[C@H](C)OC)n3CC(F)(F)F)CC(C)(C)COC(=O)[C@@H]2CCCN(N2)C1=O (atropisomer, axis not shown)	< 5.00
